Target: Epidermal growth factor receptor (Homo sapiens)
Sequence (P00533 whole entry): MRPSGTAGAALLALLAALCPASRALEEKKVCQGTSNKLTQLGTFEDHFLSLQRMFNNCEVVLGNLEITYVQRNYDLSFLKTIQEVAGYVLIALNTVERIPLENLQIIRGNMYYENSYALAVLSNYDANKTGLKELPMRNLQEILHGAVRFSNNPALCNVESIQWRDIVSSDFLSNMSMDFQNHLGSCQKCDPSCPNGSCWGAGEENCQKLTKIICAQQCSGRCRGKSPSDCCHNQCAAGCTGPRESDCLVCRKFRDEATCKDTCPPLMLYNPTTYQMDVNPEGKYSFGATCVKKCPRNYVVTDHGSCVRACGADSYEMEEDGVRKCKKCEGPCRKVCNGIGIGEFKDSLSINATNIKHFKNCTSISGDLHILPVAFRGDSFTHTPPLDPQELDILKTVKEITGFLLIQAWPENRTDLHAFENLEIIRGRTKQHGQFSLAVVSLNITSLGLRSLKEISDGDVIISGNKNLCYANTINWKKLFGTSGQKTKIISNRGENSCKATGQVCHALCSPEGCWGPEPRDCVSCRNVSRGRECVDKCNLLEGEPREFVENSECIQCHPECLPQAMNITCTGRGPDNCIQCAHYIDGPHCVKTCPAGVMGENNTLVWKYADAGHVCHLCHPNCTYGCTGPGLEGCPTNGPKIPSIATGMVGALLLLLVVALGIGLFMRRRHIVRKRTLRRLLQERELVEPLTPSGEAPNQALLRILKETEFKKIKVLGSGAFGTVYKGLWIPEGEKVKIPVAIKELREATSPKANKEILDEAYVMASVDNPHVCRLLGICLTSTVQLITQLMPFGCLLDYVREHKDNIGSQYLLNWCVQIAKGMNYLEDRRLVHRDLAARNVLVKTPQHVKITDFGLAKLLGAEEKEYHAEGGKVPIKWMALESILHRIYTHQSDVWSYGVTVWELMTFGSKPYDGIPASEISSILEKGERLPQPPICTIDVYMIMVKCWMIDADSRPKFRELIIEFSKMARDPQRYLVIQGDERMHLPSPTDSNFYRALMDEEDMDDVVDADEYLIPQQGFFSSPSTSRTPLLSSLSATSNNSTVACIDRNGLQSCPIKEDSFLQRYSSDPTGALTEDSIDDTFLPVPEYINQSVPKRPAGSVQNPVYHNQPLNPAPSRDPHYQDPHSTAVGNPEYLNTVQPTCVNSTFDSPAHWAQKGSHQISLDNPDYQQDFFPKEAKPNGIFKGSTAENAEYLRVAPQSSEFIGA
pIC50: −log10 of the molar value.
MEASURED_QUANTITY: pIC50

chemical_smiles=O=C(NO)c1sccc1Nc1nc(Nc2ccc(N3CCOCC3)cc2)ncc1Cl assay_result=7.79

----------
System: Epidermal growth factor receptor (Homo sapiens), P00533 [UNDEFINED MUTATION]
Sequence (P00533 whole entry, looked up, change not shown): as the sequence (P00533 whole entry) above
Conditions: dose 100.0 nM
# maps each entry to its inhibition
MEASURED_QUANTITY: inhibition (%)

chemical_smiles=O=C(NO)c1ccsc1Nc1nc(Nc2ccc(N3CCOCC3)cc2)ncc1Cl measured_quantity=inhibition assay_result=73.3
chemical_smiles=O=C(NO)c1sccc1Nc1nc(Nc2cccc(N3CCOCC3)c2)ncc1Cl measured_quantity=inhibition assay_result=45
chemical_smiles=COc1cc(Nc2ncc(Cl)c(Nc3ccsc3C(=O)NO)n2)cc(OC)c1OC measured_quantity=inhibition assay_result=60.6
chemical_smiles=O=C(NO)c1sccc1Nc1nc(Nc2ccc(N3CCOCC3)cc2)ncc1Cl measured_quantity=inhibition assay_result=88.6
chemical_smiles=O=C(NO)c1ccsc1Nc1nc(Nc2ccc(N3CCOCC3)cc2)ncc1C(F)(F)F measured_quantity=inhibition assay_result=32.7
chemical_smiles=O=C(NO)c1ccsc1Nc1nc(Nc2ccc(CCN3CCOCC3)cc2)ncc1Cl measured_quantity=inhibition assay_result=64.9
chemical_smiles=O=C(NO)c1ccsc1Nc1nc(Nc2ccc(OCCCN3CCOCC3)cc2)ncc1Br measured_quantity=inhibition assay_result=53
chemical_smiles=O=C(NO)c1sc2ccccc2c1Nc1nc(Nc2cccc(N3CCOCC3)c2)ncc1Br measured_quantity=inhibition assay_result=32.2
chemical_smiles=O=C(NO)c1ccsc1Nc1nc(Nc2ccc(CCN3CCOCC3)cc2)ncc1Br measured_quantity=inhibition assay_result=65.5
